test: Mouse oral PK and tissue distribution, fed state; assay type: in vivo; details: male, C57BL/6, mouse, plasma; single oral dose 10 mg/kg, fed mice; read-out: Plasma Tmax
We begin with a simple list: items and their reported Tmax.
Write the answer as a number in h, unit excluded.

Example entries and their recorded answers appear below.
{"molecule": "C[C@H](Cn1cnc2c(N)ncnc21)OCP(=O)(O)OC[C@H](COCCCCCCCCCCCCCCCC(F)(F)F)OCc1ccccc1 [21a]", "Tmax, h": 1}
{"molecule": "C[C@H](Cn1cnc2c(N)ncnc21)OCP(=O)(O)OC[C@H](COCCCCCCCCCCCCCCCCCC(F)(F)F)OCc1ccccc1 [21b]", "Tmax, h": 2}

Problem: Given the molecule C[C@H](Cn1cnc2c(N)ncnc21)OCP(=O)(O)OCCCOCCCCCCCCCCCCCCCCCC(F)(F)F [15b] , what is its reported Tmax?
Result: 4

---

Assay: Mouse oral PK and tissue distribution, fed state
Format: in vivo
Conditions: male, C57BL/6, mouse, in vivo, po, 10 mg/kg, single oral dose 10 mg/kg, fed mice; read-out: Liver Tmax
From the text: Given the increased packaging of the CF3-modified lipids into CMs compared to their ω-unmodified congeners, we selected these compounds for PK studies in mice. We hypothesized that, following oral administration, our modified prodrugs would favor CM-mediated transport into the lymphatics over absorption into mesenteric veins feeding into the portal system. […] Concentrations of prodrug were quantified using LC-MS/MS after tissue homogenization, extraction, and sample preparation. […]
We begin with a simple list: items and their reported Tmax.
Write the figure, then the unit, nothing else.

{"compound": "C[C@H](Cn1cnc2c(N)ncnc21)OCP(=O)(O)OCCCOCCCCCCCCCCCCCCCC(F)(F)F [15a]", "recorded_measurement": "2 h"}

# ---- query compound ----
Problem: Given the compound CCCCCCCCCCCCCCCCOCCCOP(=O)(O)CO[C@H](C)Cn1cnc2c(N)ncnc21 [TXL, hexadecyloxypropyl (HDP)-TFV, reference compound] , what is its reported Tmax?
Result: 2 h

---

assay: Mouse oral PK and tissue distribution, fed state; assay type: in vivo; conditions: male, C57BL/6, mouse, lung; single oral dose 10 mg/kg, fed mice; read-out: Lung Tmax
reported_endpoint: Tmax (h)
Write the answer as a number in h, unit excluded.

{"molecule": "C[C@H](Cn1cnc2c(N)ncnc21)OCP(=O)(O)OCCCOCCCCCCCCCCCCCCCCCC(F)(F)F [15b]", "unit_label": "h", "Tmax": 8}

# ---- query molecule ----
Problem: Given the molecule C[C@H](Cn1cnc2c(N)ncnc21)OCP(=O)(O)OC[C@H](COCCCCCCCCCCCCCCCCCC(F)(F)F)OCc1ccccc1 [21b] , what is its reported Tmax?
Result: 8

---

test: Mouse oral PK and tissue distribution, fed state; format: in vivo; conditions: male, C57BL/6, mouse, lung, po, 10 mg/kg; tissue not stated; read-out: Tmax (fed)
reported_endpoint: Tmax (h)
Write the answer as a number in h, unit excluded.

Problem: Given the compound C[C@H](Cn1cnc2c(N)ncnc21)OCP(=O)(O)OC[C@H](COCCCCCCCCCCCCCCCC(F)(F)F)OCc1ccccc1 [21a] , what is its reported Tmax?
Result: 8

---

Test: Mouse oral PK and tissue distribution, fed state
Format: in vivo
Details: male, C57BL/6, mouse, in vivo, po, 10 mg/kg, tissue not stated; read-out: Tmax (fed)
Text: Given the increased packaging of the CF3-modified lipids into CMs compared to their ω-unmodified congeners, we selected these compounds for PK studies in mice. We hypothesized that, following oral administration, our modified prodrugs would favor CM-mediated transport into the lymphatics over absorption into mesenteric veins feeding into the portal system. […] Concentrations of prodrug were quantified using LC-MS/MS after tissue homogenization, extraction, and sample preparation. […]
reported_endpoint: Tmax (h)
Write the answer as a number in h, unit excluded.

Problem: Given the compound CCCCCCCCCCCCCCCCOCCCOP(=O)(O)CO[C@H](C)Cn1cnc2c(N)ncnc21 [TXL, hexadecyloxypropyl (HDP)-TFV, reference compound] , what is its reported Tmax?
Result: 8

meta.source: paper PMC12441861
